All figures here come from ChEMBL document CHEMBL1201862.

System: NCI-H23
Assay: NCI tumour cell line growth inhibition, 48 h
Active and inactive are the calls of the source. Cut-off read from the data, not from the text of the source: active = GI50 up to about 1.1 µM and inactive = higher.
Collected GI50 values appear next to each entry.

C[C@@H](c1ccccc1)N1C[C@@H](c2ccc3c(c2)OCO3)[C@@H]2C(=O)CCC[C@@H]21
61.8 µM (inactive)

Task: // Input: COc1ccc(-n2sc3ncc(-c4ccccc4)cc3c2=O)cc1 . Output its GI50 only.
Result: 23.3 µM (inactive)

Task: For Cc1cc(C)nc(NS(=O)(=O)c2ccc(NNc3c4ccccc4nc4c(C(=O)Nc5ccc(S(N)(=O)=O)cc5)cccc34)cc2)n1 , write its GI50.
Result: 21.2 µM (inactive)

Task: Supply GI50 value. Item: Cc1nc2ccccc2n1CCc1nc2ccccc2s1
Result: 30 µM (inactive)

Task: Indicate its recorded GI50; the molecule in question is C=CCn1c(=O)c(C(=O)NC(=O)OCC)cn(C2CCCCC2)c1=O
Result: > 100 µM (inactive)

====

Test system: ACHN
Experiment: NCI tumour cell line growth inhibition, 48 h
Activity calls are given as the source filed them. Rule as the data show it: active = GI50 up to about 1.1 µM and inactive = higher.
Return exactly one item of True for active, False for inactive

// below: answered compounds
C=C(C)C(=O)OC1C[C@H](COC(C)=O)C2CC=C(C)C2C2OC(=O)C(=C)[C@H]12 (some centres not stated)
False
COc1ccc2ccc([Se]c3ccc4ccc(OC)cc4c3)cc2c1
False
Cc1ccc2c(c1)nc1n2C(c2c(F)cccc2F)SC1 (configuration not stated)
False

Task: Please state the recorded outcome for this compound: Cc1ccc(C=C(C(=O)O)C(=O)O)o1
Result: False

Task: # lookup: test call for Clc1ccc(CSCCc2ccncc2)cc1Cl
Result: False

Task: Would you mind telling me which call this test gave COc1ccc(/C(Cl)=C(\C=O)c2ccc([N+](=O)[O-])cc2)cc1OC ?
Result: False

Task: Hi, do you know how CCc1nc(N)nc(N)c1-c1ccc(Cc2ccccc2)c([N+](=O)[O-])c1 came out in this test?
Result: True

Task: For this compound, state the assay outcome: CC1(SCC(N)C(=O)O)CC(=O)NC1=O (configuration not stated)
Result: False

Task: Record request — test call for C1CNCCNCCNCCN1
Result: False

Task: Assay result, entry CCCC(=O)Nc1cc(/C=C/C(=O)N2CC(CCl)c3c2cc(O)c2[nH]cc(C)c32)n(C)c1 (configuration not stated) — outcome?
Result: True

Task: Any idea what this test logged for CC1=NN(c2ccccc2)C(=O)/C1=C\c1c(C)[nH]n(-c2ccccc2)c1=O ?
Result: False

Task: Give the logged outcome of this assay for the following compound: CCOP(=O)(OCC)C(C)(C)N(C)/C(F)=N/C(F)(F)F
Result: False

Task: Short answer needed: outcome of this test for CCOC(=O)C(NC(=O)c1cccc(Cl)c1)(Nc1ccc(S(=O)(=O)Nc2cc(C)nc(C)n2)cc1)C(F)(F)F (configuration not stated) ?
Result: False

Task: Which result was noted for this compound in the test: CC(C)N(C(=O)C12C3C4C5(C#N)C3C1(I)C5C42I)C(C)C (configuration not stated)
Result: False

Task: Hey, what did the test say about CC(=O)OCC1OC(SC2=N/C(=C\c3cc4c(=O)c5ccccc5sc4s3)C(=O)N2c2ccccc2)C(OC(C)=O)C(OC(C)=O)C1OC(C)=O (configuration not stated) ?
Result: False

Task: Outcome? COC1CCC(CO)OO1 (configuration not stated)
Result: False

Task: For CC/C(Cl)=N\OC(=O)Nc1ccc(F)c(Cl)c1 , what call appears in the results of this test?
Result: False

====

System: SK-MEL-5
Test: NCI tumour cell line growth inhibition, 48 h
Activity calls are given as the source filed them. No stated cut-off is given here; in the data, active = GI50 up to about 1.1 µM and inactive = higher. Non-standard residues stand in square brackets, D forms with d. Residues, ends and D or L forms follow the SMILES beside them. ξ: configuration not given here. *: point of attachment. ξF = NC(Cc1ccccc1)C(=O)O; Cbz = O=C(OCc1ccccc1)*
Field 'call' accepts 1 for active, -1 for inactive

The following compounds have reported results that may help.
O=S(=O)(O)CS(=O)(=O)OCCCl
-1
COc1cc2c(cc1OC)C1C(=O)c3c(O)cc4c(c3OC1CO2)C=CC(C)(C)O4 (stereo not given)
-1
COC(=O)Nc1nc2cc(Oc3ccc4nc(NC(=O)OC)[nH]c4c3)ccc2[nH]1
1
C(/C=N/N=C1NCCCCN1)=N\N=C1NCCCCN1
-1
CS(=O)(=O)OCC1OC(n2ccc(NC(=O)c3ccccc3)nc2=O)CC1OS(C)(=O)=O (stereo not given)
-1

Task: I would be grateful if you could indicate the recorded call for c1ccc2[nH]c3nc4ccccc4c-3cc2c1 .
Result: 1

Task: Short answer needed: outcome of this test for Clc1ccccc1/C=c1\nc(-c2ccccc2)n2c1nc1ccccc12 ?
Result: -1

Task: Assay result, entry NCC(=O)C(O)C(O)C(O)CO (stereo not given) — outcome?
Result: -1

Task: Look up the recorded call for CCOC(=O)CNC(=O)C(Cc1ccccc1)NC(=O)OCc1ccccc1 (stereo not given) (Cbz-[ξF]-Gly-OEt) in this test.
Result: -1

Task: Hi, do you know how CC[C@]12C=CCN3CC[C@@]4(c5ccc(OC)cc5N(C)[C@H]4[C@@](O)(C(=O)OC)[C@@H]1OC(C)=O)[C@@H]32 came out in this test?
Result: -1

====

Tested on: MCF7
Experiment: NCI tumour cell line growth inhibition, 48 h
Activity calls are given as the source filed them. Rule as the data show it: active = GI50 up to about 1.1 µM and inactive = higher.
Let's look at some compounds and their measured GI50.

Example entries and their recorded answers appear below.
COC(=O)C1=C([C@H]2COC(C)(C)O2)[C@H]2C[C@@H]1[C@@H]1OC(C)(C)O[C@@H]12
> 100 µM (inactive)
C1CN(c2nnc(N3CCC3)nn2)C1
> 50.2 µM (inactive)
Nc1ccc(/N=N\c2ccc(-c3ccc(O)cc3)cc2)c2ccc(S(=O)(=O)O)cc12
> 100 µM (inactive)

Task: Check the records and state GI50 for O=C1/C(=C/c2c(Cl)[nH]c3ccccc23)c2ccccc2N1c1ccccc1
Result: 4.02 µM (inactive)

Task: Write down GI50 measured for item O=c1oc2cccnc2n1CCN1CCN(c2ccc(Oc3ccccc3)cc2)CC1
Result: > 100 µM (inactive)

Task: Please list GI50 recorded for the compound CCCCN(CCCC)CCC(O)c1cc(-c2ccc(C(F)(F)F)cc2)nc(-c2ccc(C(F)(F)F)cc2)c1 (configuration not stated)
Result: > 100 µM (inactive)

Task: For the compound O=c1cc(-c2ccc(O)cc2)n(C2CC2)c2ccccc12 , give its measured GI50 value.
Result: 4.66 µM (inactive)

Task: Give the reported GI50 for this compound. Cc1c(NC(=O)CCl)c(=O)oc2c(C)c3occc(=O)c3cc12
Result: 6.79 µM (inactive)

====

We begin with a simple list: items and their reported GI50.
Tested on: UACC-62
Assay: NCI tumour cell line growth inhibition, 48 h
Activity calls are given as the source filed them. No stated cut-off is given here; in the data, active = GI50 up to about 1.1 µM and inactive = higher. *1 amine or outer side, *2 acyl side, *3 side chain or, on linkers, in order; H or OH if unused. Where a SMILES comes first, the peptide text is derived from it. Bridges are numbered along the chain shown (N, C = ends). [ ]: non-standard residue; d: D form. X36 = CC[C@H](C)[C@@H](N[*:1])[C@@H](O)CC(=O)O[C@H](C(=O)[C@H](C)C(=O)[*:2])C(C)C; NMeY = CN[C@@H](Cc1ccc(O)cc1)C(=O)O

Illustrative cases are given below, each with its answer.
[O-][S+]1c2ccccc2N=C(c2cccs2)CC1c1ccccc1O (centres undefined)
56.2 µM (inactive)
CC(C)(C)C(=O)O[C@H]1C=C[C@@H](O)[C@@H]2[C@H]1[C@@H]1C=C[C@H]2C1
9.79 µM (inactive)
CCCCOP(=O)(OCCCC)C(NS(=O)(=O)c1ccccc1)(C(=O)OCC)C(F)(F)F (centres undefined)
43.9 µM (inactive)
CC[C@H](C)[C@H]1NC(=O)[C@@H](N)[C@@H](C)OC(=O)[C@H](Cc2ccc(OC)cc2)N(C)C(=O)[C@@H]2CCCN2C(=O)[C@H](CC(C)C)NC(=O)[C@@H](C)C(=O)[C@H](C(C)C)OC(=O)C[C@@H]1O (H-T[X36]LP[NMeY](Me); ester 1-C)
29.9 µM (inactive)
CC(CC(C)(C)[N+](C)(C)C)[N+](C)(C)C (centres undefined)
> 100 µM (inactive)
CN(C)/C=N/n1c2ccccc2c2ccccc21
> 100 µM (inactive)

# ---- query molecule ----
Task: Read off the recorded GI50 for COC1(OC)CCN(Cc2ccccc2)C1=O
Result: 10.9 µM (inactive)

====

Test system: OVCAR-3
Assay: NCI tumour cell line growth inhibition, 48 h
Active and inactive are the calls of the source. Rule as the data show it: active = GI50 up to about 1.1 µM and inactive = higher.
Reported GI50 is given for each of the following compounds.

O=C(CSCC(=O)N/N=C\c1ccc(O)c(O)c1O)N/N=C\c1ccc(O)c(O)c1O
3.38 µM (inactive)
C[Si](C)(C)C1(Sc2ccccc2)SCCCS1
30.1 µM (inactive)
COc1ccc(NC(=S)NNC(=O)c2nsc3ccccc23)cc1
22.2 µM (inactive)
COC(=O)[C@@]12C(=O)CCC(=O)C1C1C(=CC2C)O[C@@H]2OC3(CCCCC3)O[C@H]12 (stereo partly specified)
34.8 µM (inactive)
O=C1OC(C2Cc3ccc4c(c3C2=O)CCC4)c2ccccc21 (stereo unspecified)
28.4 µM (inactive)

Task: Please give measured GI50 of the following entry: Cc1ccc(S(=O)(=O)NC(CCC(=O)NN)C(=O)NN)cc1 (stereo unspecified)
Result: > 100 µM (inactive)
